Tested on: CCRF-CEM leukemia
ASSAY PROCEDURE: NCI tumour cell line growth inhibition, 48 h; in the data active = GI50 below about 0.43 µM; inactive = the rest
Choose the fitting class; nothing outside Y = active, N = inactive is accepted.

Example entries begin here.
{"columns": ["COMPOUND", "GROUP LABEL"],
 "data": [
  ["C(=C\\c1nc2ccccc2s1)/c1ccc(N2CCOCC2)s1", "N"],
  ["C/C=C1\\C[C@@H]2C(OC)Nc3cc(O)c(OC)cc3C(=O)N2C1 (some centres undefined)", "Y"],
  ["C[CH2][Sn]([Cl])([CH2]C)[CH2]C", "Y"]
]}

QUERY: Please state the recorded outcome for this compound: O=C(OC(CNc1c(C(=O)c2ccccc2)c(=O)n(Cc2ccccc2)c(=O)n1Cc1ccccc1)CN1CCCCC1)c1ccccc1 (centres undefined)
RESULT: N

---

Test system: SNB-75 CNS
ASSAY PROCEDURE: NCI tumour cell line growth inhibition, 48 h
Quick reference: TGI of the listed items.

Below, 2 compounds whose answers are already recorded.
{"columns": ["COMPOUND", "TARGET UNDER TEST", "RECORDED ENDPOINT", "OBSERVED"],
 "data": [
  ["COc1ccc(C(=O)c2cc(OC)c(OC)c(OC)c2)cc1/C=C/C(=O)c1ccc2c(c1)OCO2", "SNB-75 CNS", "TGI", "15.6 µM"],
  ["CCOC(=O)NC(C(C(=O)OCC)C(=O)OCC)(C(F)(F)F)C(F)(F)F", "SNB-75 CNS", "TGI", "> 100 µM"]
]}

QUERY: What value of TGI on SNB-75 CNS does CCC[CH2][Ge]([CH2]CCC)([CH2]CCC)[O]C(=O)C(OC(C)=O)c1ccccc1 (centres undefined) have?
RESULT: 25.2 µM

QUERY: API: value(readout= TGI, system= SNB-75 CNS, query= NN/C(=N\S(=O)(=O)c1cccc2nsnc12)Nc1ccc(Cl)cc1 )
RESULT: > 100 µM

QUERY: API: value(readout=TGI, system=SNB-75 CNS) for record Cc1n(-c2ccccc2)c2c([n+]1Cc1ccc([N+](=O)[O-])cc1)C(=O)c1ccccc1C2=O
RESULT: 13.1 µM

QUERY: Query for SNB-75 CNS: what TGI does the record show for CCCCCCCSCC1OC(n2cnc3c(N)ncnc32)C(O)C1O (centres undefined) ?
RESULT: > 100 µM

QUERY: Entry COC(=O)C1=C(OC(=O)/C(=C/c2c(F)cccc2F)c2ccccc2)C(C(=O)OC)[C@@]2(O)[C@@H](C(=O)OC)[C@H](C)C[C@@H]1[C@@H]2C(=O)OC (some centres undefined) , system SNB-75 CNS: what TGI was measured?
RESULT: > 100 µM

QUERY: Lab note: need TGI for C=CCOCn1ccc(NC(=O)c2ccccc2)nc1=O on SNB-75 CNS, anyone have it?
RESULT: > 100 µM

QUERY: TGI of Cc1ccc(C)c(N2C(=O)C(=O)c3c(C)ccc(C)c32)c1 on SNB-75 CNS?
RESULT: > 100 µM

QUERY: Fill in the recorded TGI for this compound, with SNB-75 CNS as test system: CC1OC(n2cc(I)c(=O)[nH]c2=O)C=CC1=O (centres undefined)
RESULT: 31.1 µM
